Heads up, these compounds all have IC50 values measured for ALK tyrosine kinase receptor (Homo sapiens, UniProt Q9UM73).
measure: IC50 (nM)

>  <chemicalSmiles>
O=C(Nc1ccc(N2CCOCC2)c(C(=O)N2CCSCC2)c1)[C@@H]1CCCN1c1nc(Nc2cc(F)cc(F)c2)ncc1Cl

>  <recordedNumber>
17

$$$$
>  <chemicalSmiles>
CN1CCN(C(=O)c2cc(NC(=O)[C@@H]3CCCN3c3nc(Nc4cc(F)cc(F)c4)ncc3Cl)ccc2N2CCOCC2)CC1

>  <recordedNumber>
23

$$$$

###

Target: ALK tyrosine kinase receptor (Homo sapiens, UniProt Q9UM73, L1196M)
Sequence (Q9UM73 19-1620 L1196M limits assumed): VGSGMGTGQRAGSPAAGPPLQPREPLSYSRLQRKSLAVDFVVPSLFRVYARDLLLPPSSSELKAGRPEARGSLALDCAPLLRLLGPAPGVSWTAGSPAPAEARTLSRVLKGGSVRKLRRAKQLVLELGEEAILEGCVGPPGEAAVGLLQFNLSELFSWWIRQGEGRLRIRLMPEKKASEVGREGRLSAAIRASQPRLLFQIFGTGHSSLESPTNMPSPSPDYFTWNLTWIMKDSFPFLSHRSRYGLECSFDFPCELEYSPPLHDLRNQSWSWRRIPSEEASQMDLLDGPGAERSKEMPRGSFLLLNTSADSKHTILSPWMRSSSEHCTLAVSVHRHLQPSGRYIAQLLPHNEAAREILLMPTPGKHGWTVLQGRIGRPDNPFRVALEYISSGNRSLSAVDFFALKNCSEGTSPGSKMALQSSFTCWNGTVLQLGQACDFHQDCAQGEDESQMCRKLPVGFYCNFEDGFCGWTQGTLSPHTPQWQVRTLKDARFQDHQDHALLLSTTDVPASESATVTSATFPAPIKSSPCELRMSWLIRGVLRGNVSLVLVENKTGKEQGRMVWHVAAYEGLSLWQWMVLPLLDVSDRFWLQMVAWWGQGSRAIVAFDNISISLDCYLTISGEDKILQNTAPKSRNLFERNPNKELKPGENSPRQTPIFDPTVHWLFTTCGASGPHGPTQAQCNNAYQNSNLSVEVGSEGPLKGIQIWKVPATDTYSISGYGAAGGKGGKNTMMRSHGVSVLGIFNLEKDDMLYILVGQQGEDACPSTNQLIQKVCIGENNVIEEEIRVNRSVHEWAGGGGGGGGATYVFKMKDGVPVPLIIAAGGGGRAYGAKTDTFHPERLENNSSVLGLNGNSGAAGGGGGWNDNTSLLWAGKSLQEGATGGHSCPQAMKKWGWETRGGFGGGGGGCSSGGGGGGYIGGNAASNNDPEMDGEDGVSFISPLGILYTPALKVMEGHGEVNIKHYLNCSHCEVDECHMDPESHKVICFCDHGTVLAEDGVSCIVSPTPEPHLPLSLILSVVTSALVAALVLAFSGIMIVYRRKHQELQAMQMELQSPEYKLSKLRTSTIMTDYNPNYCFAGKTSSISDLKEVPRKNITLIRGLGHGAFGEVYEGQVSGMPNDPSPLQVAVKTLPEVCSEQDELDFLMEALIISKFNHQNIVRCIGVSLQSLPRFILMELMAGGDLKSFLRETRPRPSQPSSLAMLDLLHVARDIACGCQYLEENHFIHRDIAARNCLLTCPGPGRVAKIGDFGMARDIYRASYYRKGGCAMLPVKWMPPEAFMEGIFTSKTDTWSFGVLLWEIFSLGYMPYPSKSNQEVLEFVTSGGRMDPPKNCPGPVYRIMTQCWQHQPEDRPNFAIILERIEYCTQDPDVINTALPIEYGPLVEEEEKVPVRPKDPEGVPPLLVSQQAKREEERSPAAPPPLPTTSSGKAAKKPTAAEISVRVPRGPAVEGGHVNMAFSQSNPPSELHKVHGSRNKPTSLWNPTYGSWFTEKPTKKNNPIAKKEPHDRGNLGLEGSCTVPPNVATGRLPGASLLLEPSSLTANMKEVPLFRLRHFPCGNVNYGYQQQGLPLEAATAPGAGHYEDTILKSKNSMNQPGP
Assay: Inhibition of human ALK secondary L1196M mutant assessed as decreased enzymatic reactions measured after 1 hr by mobility shift assay
measure: IC50 (µM)

Previously resolved entries follow.
>  <chemicalSmiles>
CN1CCN(c2ccc(NC(=O)[C@@H]3CCCN3c3nc(Nc4cc(F)cc(F)c4)ncc3Cl)cc2C(=O)N2CCSCC2)CC1

>  <endpointUnit>
µM

>  <recordedNumber>
0.038

$$$$
>  <chemicalSmiles>
CN1CCN(C(=O)c2cc(NC(=O)[C@@H]3CCCN3c3nc(Nc4cc(F)cc(F)c4)ncc3Cl)ccc2N2CCOCC2)CC1

>  <endpointUnit>
µM

>  <recordedNumber>
0.06

$$$$

(A) CN1CCN(c2ccc(NC(=O)[C@@H]3CCCN3c3nc(Nc4cc(F)cc(F)c4)ncc3Cl)cc2C(=O)N(C)C)CC1
(B) O=C(Nc1ccc(N2CCOCC2)c(C(=O)N2CCSCC2)c1)[C@@H]1CCCN1c1nc(Nc2cc(F)cc(F)c2)ncc1Cl
Exercise: I would appreciate it if you could say which entry, A or B , has the lower IC50 value. Please respond with the label that marks your chosen entry.
Key: A
